# Experimental system: T1, human CD81 on CD81-expressing cells (Jurkat E6.1, human PBMC, Ramos) (human, UniProt P60033 1-236)
# T1 sequence: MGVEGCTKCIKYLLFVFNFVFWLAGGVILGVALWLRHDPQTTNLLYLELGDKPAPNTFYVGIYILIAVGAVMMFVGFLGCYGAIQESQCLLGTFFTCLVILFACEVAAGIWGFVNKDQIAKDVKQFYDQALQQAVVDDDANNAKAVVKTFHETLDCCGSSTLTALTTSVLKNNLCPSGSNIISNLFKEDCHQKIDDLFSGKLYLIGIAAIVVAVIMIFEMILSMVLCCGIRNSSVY
# Assay remarks: cell-based or functional assay
Attribute measured: Jurkat chemotaxis (% of control IgG4) at 0.01 µg/mL (%)
Kindly answer with a numeric value in %, unit omitted.

Worked set:
[
  {
    "Binder": "002-A07 S115N (antibody, human IgG4 S228P, lambda, V domains shown, IgG4 S228P; glycosylation site mutant of 002-A07 VL) VH: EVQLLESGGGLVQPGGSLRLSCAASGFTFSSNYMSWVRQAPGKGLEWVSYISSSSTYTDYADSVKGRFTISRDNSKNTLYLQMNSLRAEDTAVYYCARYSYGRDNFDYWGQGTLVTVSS VL: QSVLTQPPSASGTPGQRVTISCTGSTSNIGAGYDTHWYQQLPGTAPKLLIYGNSNRPSGVPDRFSGSKSGTSASLAISGLRSEDEADYYCQSYDTNLNVWVFGGGTKLTVLG",
    "Recorded result": 69
  },
  {
    "Binder": "002-A07 S115A (antibody, human IgG4 S228P, lambda, V domains shown, IgG4 S228P; glycosylation site mutant of 002-A07 VL) VH: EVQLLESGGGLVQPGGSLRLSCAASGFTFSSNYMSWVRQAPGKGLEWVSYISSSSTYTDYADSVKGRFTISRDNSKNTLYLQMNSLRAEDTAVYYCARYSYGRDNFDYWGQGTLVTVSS VL: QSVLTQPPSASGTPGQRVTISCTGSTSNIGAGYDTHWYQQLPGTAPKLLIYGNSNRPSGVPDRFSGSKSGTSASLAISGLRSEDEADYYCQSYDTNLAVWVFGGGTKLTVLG",
    "Recorded result": 78
  }
]

**Query** Sample 002-F07 (antibody, human IgG4 S228P, lambda, V domains shown, IgG4 S228P) VH: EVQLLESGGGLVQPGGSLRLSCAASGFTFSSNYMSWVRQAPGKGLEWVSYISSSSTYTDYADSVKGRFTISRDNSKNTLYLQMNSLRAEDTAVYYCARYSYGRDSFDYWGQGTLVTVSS VL: QSVLTQPFSASGTPGQRVTISCTGSTSNIGAGFDTHWYQQLPGTAPKLLIYGNSNRPSGVPDRFSGSKSGTTASLAISGLRSEDEADYYCQSYDTNLSVWVFGGGTKLTVLG — what was its Jurkat chemotaxis (% of control IgG4) at 0.01 µg/mL?
**Result** 88
